The measurements presented in this section are drawn from patent US20230382924A1.

Molecular target: CFTR (Homo sapiens, UniProt P13569)
Sequence (P13569 with tags, fused parts or gaps DEL508-508): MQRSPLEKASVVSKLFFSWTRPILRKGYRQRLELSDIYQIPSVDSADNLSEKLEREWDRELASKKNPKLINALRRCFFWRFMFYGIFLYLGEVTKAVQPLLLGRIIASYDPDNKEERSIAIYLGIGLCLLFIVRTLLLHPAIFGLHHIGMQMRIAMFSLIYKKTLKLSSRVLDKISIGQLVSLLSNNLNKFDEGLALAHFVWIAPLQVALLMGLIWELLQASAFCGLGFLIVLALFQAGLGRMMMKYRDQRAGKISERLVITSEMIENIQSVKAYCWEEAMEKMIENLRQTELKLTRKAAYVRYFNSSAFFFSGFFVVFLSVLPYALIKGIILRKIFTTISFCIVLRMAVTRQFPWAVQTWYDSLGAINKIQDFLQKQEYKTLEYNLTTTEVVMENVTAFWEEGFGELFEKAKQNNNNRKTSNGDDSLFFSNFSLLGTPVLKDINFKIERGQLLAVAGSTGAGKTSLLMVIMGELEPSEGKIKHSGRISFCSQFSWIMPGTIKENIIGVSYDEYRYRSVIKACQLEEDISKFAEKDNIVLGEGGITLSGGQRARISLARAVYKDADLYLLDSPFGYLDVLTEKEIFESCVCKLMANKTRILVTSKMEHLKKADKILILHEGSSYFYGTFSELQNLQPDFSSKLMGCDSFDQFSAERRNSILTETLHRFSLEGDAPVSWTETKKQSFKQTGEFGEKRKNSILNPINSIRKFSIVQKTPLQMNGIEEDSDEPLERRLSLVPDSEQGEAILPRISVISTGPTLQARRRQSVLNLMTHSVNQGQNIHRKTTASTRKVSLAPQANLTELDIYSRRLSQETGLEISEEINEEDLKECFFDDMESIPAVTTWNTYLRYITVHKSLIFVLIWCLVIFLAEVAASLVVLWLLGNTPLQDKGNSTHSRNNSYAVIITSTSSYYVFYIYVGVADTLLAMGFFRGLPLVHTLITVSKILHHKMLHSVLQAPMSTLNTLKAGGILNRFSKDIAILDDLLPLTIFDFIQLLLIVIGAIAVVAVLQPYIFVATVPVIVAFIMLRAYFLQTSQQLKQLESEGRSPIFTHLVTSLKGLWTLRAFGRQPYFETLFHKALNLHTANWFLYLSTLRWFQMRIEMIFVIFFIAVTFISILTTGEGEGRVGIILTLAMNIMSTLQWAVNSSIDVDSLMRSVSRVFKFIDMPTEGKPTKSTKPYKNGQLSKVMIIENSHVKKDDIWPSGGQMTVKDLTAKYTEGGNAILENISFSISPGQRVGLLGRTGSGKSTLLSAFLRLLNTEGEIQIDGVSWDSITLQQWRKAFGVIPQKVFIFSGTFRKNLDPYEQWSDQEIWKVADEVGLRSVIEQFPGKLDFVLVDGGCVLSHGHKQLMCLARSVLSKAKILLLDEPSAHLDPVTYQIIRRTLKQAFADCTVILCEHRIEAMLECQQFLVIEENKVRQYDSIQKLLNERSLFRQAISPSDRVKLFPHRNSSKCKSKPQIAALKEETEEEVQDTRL
Test: Membrane Potential Dye, Enteroid Assay B
Format: cell-based
Details: Table 9
MEASURED PROPERTY: Ent. B Max Activity

| MOLECULE | MEASURED PROPERTY | TEST RESULT |
| --- | --- | --- |
| Cc1cccc(C)c1-c1cc2nc(n1)NS(=O)(=O)c1cccc(c1)C(=O)N[C@@H]1CN(C3CC4(CCCC4)C3)C[C@H]1O2 [Compound 56] | Ent. B Max Activity | ++ (++ is 30-60%) |
| O=C1N[C@@H]2CCCC/C=C/c3ccccc3-c3cc(nc(n3)NS(=O)(=O)c3cccc1c3)OC2 [Compound 219] | Ent. B Max Activity | +++ (+++ is >60%) |
| Cc1cccc(C)c1-c1cc2nc(n1)NS(=O)(=O)c1cc(n(C)n1)C(=O)N[C@H](C)C(c1ccc(C(C)(C)C)cc1)O2 (stereo in doubt) [Compound 172] | Ent. B Max Activity | ++ (++ is 30-60%) |
| Cc1cccc(C)c1-c1cc2nc(n1)NS(=O)(=O)c1cccc(c1)C(=O)N[C@@H]1CN(C(C)C)C[C@H]1O2 [Compound 375] | Ent. B Max Activity | ++ (++ is 30-60%) |
| Cc1cccc(C)c1-c1cc2nc(n1)NS(=O)(=O)c1cccc(c1)C(=O)N[C@@H]1CN(C(=O)OC(C)(C)C)C[C@H]1O2 [Compound 57] | Ent. B Max Activity | +++ (+++ is >60%) |
| O=C1N[C@@H]2CCCCCCCCc3ccccc3-c3cc(nc(n3)NS(=O)(=O)c3cccc1c3)OC2 [Compound 37] | Ent. B Max Activity | +++ (+++ is >60%) |
| O=C1N[C@@H]2CCCCC/C=C/c3ccccc3-c3cc(nc(n3)NS(=O)(=O)c3cccc1c3)OC2 [Compound 218] | Ent. B Max Activity | +++ (+++ is >60%) |
| Cc1cccc(C)c1-c1cc2nc(n1)NS(=O)(=O)c1cccc(c1)C(=O)N[C@@H](CC13CC4CC(CC(C4)C1)C3)CO2 (single isomer, unassigned) [Compound 110] | Ent. B Max Activity | +++ (+++ is >60%) |
| Cc1cccc(C)c1-c1cc2nc(n1)NS(=O)(=O)c1cccc(c1)C(=O)NC[C@@H](c1ccc(CCC3(C(F)(F)F)CC3)cc1)O2 [Compound 146] | Ent. B Max Activity | +++ (+++ is >60%) |
| Cc1cccc(C)c1-c1cc2nc(n1)NS(=O)(=O)c1cccc(c1)C(=O)N[C@@H]1CN(CCC3(C(F)(F)F)CC3)C[C@H]1O2 [Compound 378] | Ent. B Max Activity | +++ (+++ is >60%) |
| C=CCCCC[C@@H]1COc2cc(-c3ccccc3C=C)nc(n2)NS(=O)(=O)c2cccc(c2)C(=O)N1 [Compound 221] | Ent. B Max Activity | +++ (+++ is >60%) |
| Cc1cccc(C)c1-c1cc2nc(n1)NS(=O)(=O)c1cccc(c1)C(=O)NC[C@@H](c1ccc(CC(C)(C)C)cc1)O2 [Compound 263] | Ent. B Max Activity | ++ (++ is 30-60%) |
| Cc1cccc(C)c1-c1cc2nc(n1)NS(=O)(=O)c1cc(n[nH]1)C(=O)N[C@H](CC(C)C)CO2 [Compound 78] | Ent. B Max Activity | ++ (++ is 30-60%) |
| Cc1cccc(C)c1-c1cc2nc(n1)NS(=O)(=O)c1cccc(c1)C(=O)N[C@@H]1CN(c3ncc(C(F)(F)F)cn3)C[C@H]1O2 [Compound 372] | Ent. B Max Activity | ++ (++ is 30-60%) |

###

Molecular target: CFTR (Homo sapiens)
Assay: Membrane Potential Dye, Enteroid Assay A
Assay type: cell-based
Conditions: Table 9
MEASURED PROPERTY: Ent. A Max Activity

| MOLECULE | TEST RESULT |
| --- | --- |
| Cc1cccc(C)c1-c1cc2nc(n1)NS(=O)(=O)c1cccc(c1)C(=O)N[C@@H]1CN(Cc3ccc(C(F)(F)F)cc3)C[C@H]1O2 | +++ (+++ is >60%) |
| Cc1cccc(C)c1-c1cc2nc(n1)NS(=O)(=O)c1cc(n[nH]1)C(=O)N[C@H](CC(C)C)CO2 | ++ (++ is 30-60%) |
| CC(C)C[C@@H]1COc2cc(-c3ccccc3Oc3ccccc3)nc(n2)NS(=O)(=O)c2cccc(c2)C(=O)N1 | ++ (++ is 30-60%) |
| Cc1cccc(C)c1-c1cc2nc(n1)NS(=O)(=O)c1cccc(c1)C(=O)NCC(C1CCC(C)(C)CC1)O2 (stereo not shown) | +++ (+++ is >60%) |
| Cc1cccc(C)c1-c1cc2nc(n1)NS(=O)(=O)c1cccc(c1)C(=O)NCC(c1ccc(C3CCC3)cc1)O2 (stereo not shown) [Compound 12] | +++ (+++ is >60%) |
| Cc1cccc(Cc2ccccc2)c1-c1cc2nc(n1)NS(=O)(=O)c1cccc(c1)C(=O)N[C@H](CC(C)C)CO2 | +++ (+++ is >60%) |
| CCC(CC)(CC)c1ccc([C@@H]2CNC(=O)c3cccc(c3)S(=O)(=O)Nc3nc(cc(-c4c(C)cccc4C)n3)O2)cc1 [Compound 258] | +++ (+++ is >60%) |
| Cc1cccc(C)c1-c1cc2nc(n1)NS(=O)(=O)c1cccc(c1)C(=O)NCC(CC(C)C)(CC(C)C)CO2 | +++ (+++ is >60%) |
| Cc1cccc(Cc2cccc(C)c2-c2cc3nc(n2)NS(=O)(=O)c2cccc(c2)C(=O)N[C@H](CC(C)C)CO3)c1 | +++ (+++ is >60%) |

###

Molecular target: CFTR (Homo sapiens, UniProt P13569)
Assay: Membrane Potential Dye, Enteroid Assay A
Assay type: cell-based
Conditions: Table 8
Experimental: Base medium (ADF+++) consisted of Advanced DMEM/Ham's F12, 2 mM Glutamax, 10 mM HEPES, […] penicillin/streptomycin. Bath 1 Buffer consisted of 1 mM MgCl2, 160 mM NaCl, 4.5 mM KCl, 10 mM HEPES, 10 mM Glucose, 2 mM CaCl2). […] Briefly, cells were washed 5 times in Bath 1 Buffer. […] Chloride transport was initiated by addition of Chloride Free Dye Stimulation Solution and the fluorescence signal was read for 15 min. […]

| COMPOUND | SYSTEM | Ent. A Max Activity |
| --- | --- | --- |
| Cc1cccc(C)c1-c1cc2nc(n1)NS(=O)(=O)c1cccc(c1)C(=O)NC[C@@H](c1ccc(C(C)(C)C)cn1)O2 (single isomer, unassigned) [Compound 7] | CFTR (Homo sapiens, UniProt P13569) | +++ (+++ is >60%) |
| Cc1cccc(C)c1-c1cc2nc(n1)NS(=O)(=O)c1cccc(c1)C(=O)NC[C@@H](c1ccc(C(C)(C)C)cc1)O2 (single isomer, unassigned) [Compound 5] | CFTR (Homo sapiens, UniProt P13569) | +++ (+++ is >60%) |
| Cc1cccc(C)c1-c1cc2nc(n1)NS(=O)(=O)c1cccc(c1)C(=O)NCC(c1ccccc1Cl)O2 (stereo not drawn) [Compound 31] | CFTR (Homo sapiens, UniProt P13569) | +++ (+++ is >60%) |
| Cc1cccc(C)c1-c1cc2nc(n1)NS(=O)(=O)c1cccc(c1)C(=O)NCC(c1ccc(CC(C)(C)C)cc1)O2 (stereo not drawn) [Compound 267] | CFTR (Homo sapiens, UniProt P13569) | +++ (+++ is >60%) |
| Cc1cccc(C)c1-c1cc2nc(n1)NS(=O)(=O)c1cccc(c1)C(=O)NCC(c1ccc(Br)cc1)O2 (racemic) [Compound 18] | CFTR (Homo sapiens, UniProt P13569) | +++ (+++ is >60%) |
| Cc1cccc(C)c1-c1cc2nc(n1)NS(=O)(=O)c1cccc(c1)C(=O)N[C@H](CC(C)C)[C@H](C)O2 [Compound 235] | CFTR (Homo sapiens, UniProt P13569) | +++ (+++ is >60%) |
| Cc1cccc(C)c1-c1cc2nc(n1)NS(=O)(=O)c1cccc(c1)C(=O)NC[C@@H](c1ccc(C(C)(F)F)cc1)O2 (stereo in doubt) [Compound 400] | CFTR (Homo sapiens, UniProt P13569) | + (+ is <30%) |
| Cc1cccc(C)c1-c1cc2nc(n1)NS(=O)(=O)c1cccc(c1)C(=O)N[C@H](CC1CCCCC1)[C@@H](c1ccc(C(C)(C)C)cc1)O2 [Compound 154] | CFTR (Homo sapiens, UniProt P13569) | +++ (+++ is >60%) |
| Cc1cccc(C)c1-c1cc2nc(n1)NS(=O)(=O)c1cccc(c1)C(=O)N[C@@H](CC1(C(F)(F)F)CC1)CO2 [Compound 288] | CFTR (Homo sapiens, UniProt P13569) | +++ (+++ is >60%) |
| Cc1cccc(C)c1-c1cc2nc(n1)NS(=O)(=O)c1cccc(c1)C(=O)NC(C(F)(F)F)CO2 (stereo not drawn) [Compound 171] | CFTR (Homo sapiens, UniProt P13569) | + (+ is <30%) |
| Cc1cc(C(C)(C)C)ccc1C1CNC(=O)c2cccc(c2)S(=O)(=O)Nc2nc(cc(-c3c(C)cccc3C)n2)O1 (stereo not drawn) [Compound 157] | CFTR (Homo sapiens, UniProt P13569) | +++ (+++ is >60%) |
| COc1cccc(C)c1-c1cc2nc(n1)NS(=O)(=O)c1cccc(c1)C(=O)N[C@H](CC1CCCCC1)CO2 [Compound 303] | CFTR (Homo sapiens, UniProt P13569) | + (+ is <30%) |
| Cc1cccc(C)c1-c1cc2nc(n1)NS(=O)(=O)c1cncc(c1)C(=O)N[C@H](CC1CCCCC1)CO2 [Compound 412] | CFTR (Homo sapiens, UniProt P13569) | +++ (+++ is >60%) |
| Cc1cccc(C)c1-c1cc2nc(n1)NS(=O)(=O)c1cccc(c1)C(=O)NC[C@H](c1ccc(C(F)(F)F)cc1)O2 (stereo in doubt) [Compound 402] | CFTR (Homo sapiens, UniProt P13569) | + (+ is <30%) |
| Cc1cc(C(C)(C)C)ccc1[C@H]1CNC(=O)c2cccc(c2)S(=O)(=O)Nc2nc(cc(-c3c(C)cccc3C)n2)O1 (stereo in doubt) [Compound 156] | CFTR (Homo sapiens, UniProt P13569) | + (+ is <30%) |
| Cc1cccc(C)c1-c1cc2nc(n1)NS(=O)(=O)c1cccc(c1)C(=O)NC[C@@H](c1ccc(C(C)(C)C)cn1)O2 (single isomer, unassigned) [Compound 8] | CFTR (Homo sapiens, UniProt P13569) | + (+ is <30%) |
| COc1cccc(C)c1-c1cc2nc(n1)NS(=O)(=O)c1cccc(c1)C(=O)N[C@H](CC(C)(C)C)CO2 [Compound 304] | CFTR (Homo sapiens, UniProt P13569) | +++ (+++ is >60%) |
| Cc1cccc(C)c1-c1cc2nc(n1)NS(=O)(=O)c1cccc(c1)C(=O)N[C@H](C(C)(C)C)CO2 [Compound 361] | CFTR (Homo sapiens, UniProt P13569) | +++ (+++ is >60%) |
